Reported switch fluorescence ratio by item:
# Test system: ATP;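 also: ATP exposure 15 min at 22 °C before imaging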
# Protocol description: switch fluorescence ratio, 500 uM ATP over buffer (Cy3 cluster intensity, sum of 5 cycles each) (fold (ratio)); higher = stronger signal-on switching upon ATP binding; sequences stand for … in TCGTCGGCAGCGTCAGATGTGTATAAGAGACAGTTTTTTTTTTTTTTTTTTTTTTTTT…TC
# Run conditions: aptamer strand: ATP DNA aptamer (quencher-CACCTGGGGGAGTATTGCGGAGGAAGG + anchor), 100 nM annealed; ATP concentration: 500 uM
Keep it simple and answer with nothing but the number.

GAGTAAAGTC = 0.934
CAGTCCATTA = 1.01
TTATATATCA = 1.01
TATTAGTTTT = 1.02
GGCCGATTTT = 0.981

Incoming: Give the measured switch fluorescence ratio of `CGGTTTTAGC` .
Outgoing: 0.968

Incoming: Give the measured switch fluorescence ratio of `GATGAAATTG` .
Outgoing: 0.953

Incoming: Give the measured switch fluorescence ratio of `TGGTTTTTGA` .
Outgoing: 0.988

Incoming: Give the measured switch fluorescence ratio of `ATTGTTGTTT` .
Outgoing: 0.981

Incoming: Give the measured switch fluorescence ratio of `TAGTTAGGGT` .
Outgoing: 0.996
